Target or system: 11-beta-hydroxysteroid dehydrogenase 1 (Homo sapiens, UniProt P28845)
Sequence (P28845 whole entry, looked up): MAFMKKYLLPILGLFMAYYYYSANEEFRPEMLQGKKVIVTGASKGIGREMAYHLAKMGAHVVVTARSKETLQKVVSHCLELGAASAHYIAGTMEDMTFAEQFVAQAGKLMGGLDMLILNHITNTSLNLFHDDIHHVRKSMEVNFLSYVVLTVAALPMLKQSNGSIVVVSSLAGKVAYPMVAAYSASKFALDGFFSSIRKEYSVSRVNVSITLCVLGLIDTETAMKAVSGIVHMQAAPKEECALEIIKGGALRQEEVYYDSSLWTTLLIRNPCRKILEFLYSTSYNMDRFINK
Test protocol: Inhibition of human 11beta-HSD1 transfected in CHOP cells at 100 uM relative to control
Format: cell-based
Label true when inhibition is at or above 30%; anything below gets false.

(Q) Tell me whether inhibition is at least 30% here: C=CCOc1ccc(/C=C2\CCC/C(=C\c3ccc(OCC=C)c(OC)c3)C2=O)cc1OC
(A) false

(Q) Tell me whether inhibition is at least 30% here: CCOc1ccc(/C=C/C(=O)/C=C/c2ccc(OCC)cc2)cc1
(A) false

(Q) Tell me whether inhibition is at least 30% here: COc1cc(/C=C/C(=O)/C=C/c2ccc(OC3CCCCO3)c(OC)c2)ccc1OC1CCCCO1 (centres undefined)
(A) false

(Q) Tell me whether inhibition is at least 30% here: C=CCOc1ccc(/C=C/C(=O)/C=C/c2ccc(OCC=C)c(OC)c2)cc1OC
(A) false

(Q) Tell me whether inhibition is at least 30% here: C=CCOc1ccc(/C=C2\CC/C(=C\c3ccc(OCC=C)cc3)C2=O)cc1
(A) false

(Q) Tell me whether inhibition is at least 30% here: CCOc1ccc(/C=C2\CC/C(=C\c3ccc(OCC)cc3)C2=O)cc1
(A) false

(Q) Tell me whether inhibition is at least 30% here: CN(C)c1ccc(/C=C/C(=O)/C=C/c2ccc(N(C)C)cc2)cc1
(A) false

(Q) Tell me whether inhibition is at least 30% here: C=CCOc1ccc(/C=C/C(=O)/C=C/c2ccc(OCC=C)cc2)cc1
(A) false

(Q) Tell me whether inhibition is at least 30% here: COc1cc(/C=C2\CC/C(=C\c3cc(OC)c(OC)c(OC)c3)C2=O)cc(OC)c1OC
(A) true

(Q) Tell me whether inhibition is at least 30% here: O=C1/C(=C/c2ccc(OC3CCCCO3)cc2)CCC/C1=C\c1ccc(OC2CCCCO2)cc1 (centres undefined)
(A) false

(Q) Tell me whether inhibition is at least 30% here: CN(C)c1ccc(/C=C2\CC/C(=C\c3ccc(N(C)C)cc3)C2=O)cc1
(A) false

(Q) Tell me whether inhibition is at least 30% here: COc1cc(/C=C2\CCC/C(=C\c3cc(OC)c(OC)c(OC)c3)C2=O)cc(OC)c1OC
(A) false

(Q) Tell me whether inhibition is at least 30% here: COc1cc(/C=C2\CCC/C(=C\c3ccc(OC4CCCCO4)c(OC)c3)C2=O)ccc1OC1CCCCO1 (centres undefined)
(A) true

(Q) Tell me whether inhibition is at least 30% here: O=C(/C=C/c1ccc(OC2CCCCO2)cc1)/C=C/c1ccc(OC2CCCCO2)cc1 (centres undefined)
(A) true

(Q) Tell me whether inhibition is at least 30% here: C=CCOc1ccc(/C=C2\CCC/C(=C\c3ccc(OCC=C)cc3)C2=O)cc1
(A) false

(Q) Tell me whether inhibition is at least 30% here: O=C1/C(=C/c2ccc(OC3CCCCO3)cc2)CC/C1=C\c1ccc(OC2CCCCO2)cc1 (centres undefined)
(A) false

(Q) Tell me whether inhibition is at least 30% here: C=CCOc1ccc(/C=C2\CC/C(=C\c3ccc(OCC=C)c(OC)c3)C2=O)cc1OC
(A) true

(Q) Tell me whether inhibition is at least 30% here: COc1cc(/C=C2\CC/C(=C\c3ccc(O)c(OC)c3)C2=O)ccc1O
(A) false

(Q) Tell me whether inhibition is at least 30% here: O=C1/C(=C/c2ccc(O)cc2)CC/C1=C\c1ccc(O)cc1
(A) false

(Q) Tell me whether inhibition is at least 30% here: COc1cc(/C=C/C(=O)/C=C/c2cc(OC)c(OC)c(OC)c2)cc(OC)c1OC
(A) true

(Q) Tell me whether inhibition is at least 30% here: CN(C)CCCOc1ccc(/C=C2\CC/C(=C\c3ccc(OCCCN(C)C)cc3)C2=O)cc1
(A) true

(Q) Tell me whether inhibition is at least 30% here: CCOc1ccc(/C=C2\CCC/C(=C\c3ccc(OCC)cc3)C2=O)cc1
(A) false

(Q) Tell me whether inhibition is at least 30% here: COc1cc(/C=C2\CC/C(=C\c3ccc(OC4CCCCO4)c(OC)c3)C2=O)ccc1OC1CCCCO1 (centres undefined)
(A) false

(Q) Tell me whether inhibition is at least 30% here: CN(C)c1ccc(/C=C2\CCC/C(=C\c3ccc(N(C)C)cc3)C2=O)cc1
(A) false
